measured on: TREM2 extracellular domain (ECD) (residues 19-131, C-terminally biotinylated, deglycosylated or glycosylated) (Homo sapiens, UniProt Q9NZC2)
Sequence (Q9NZC2 19-131): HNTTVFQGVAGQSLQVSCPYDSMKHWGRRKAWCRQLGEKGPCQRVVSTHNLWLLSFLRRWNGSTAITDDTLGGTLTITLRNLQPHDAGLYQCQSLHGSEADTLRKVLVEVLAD
test protocol: biochemical;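 further: Bio-layer interferometry in 50 mM HEPES pH 7.5 with 150 mM NaCl and 0.1% Tween, double-referenced with blank wells and unrelated-protein sensors, equilibrium response fitted versus concentration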
measurement parameters: Human BLI (Kd; nM) (deglycosylated), Table 4A; deglycosylated human TREM2 ECD; steady-state KD, 25° C.
*1 amine or outer side, *2 acyl side, *3 side chain or, on linkers, in order; H or OH if unused. Where a SMILES comes first, the peptide text is derived from it. Bridges are numbered along the chain shown (N, C = ends). TATA = O=C(CC[*:1])N1CN(C(=O)CC[*:2])CN(C(=O)CC[*:3])C1
Catalogue of compounds with associated Kd
Please respond with the number in nM and leave the unit unwritten.

Problem: Need Kd of CC(=O)N[C@@H](C)C(=O)N[C@H]1CSCCC(=O)N2CN3CN(C2)C(=O)CCSC[C@H](NC(=O)[C@H](Cc2ccc(O)cc2)NC(=O)[C@H](CCC(=O)O)NC(=O)[C@H](CO)NC1=O)C(=O)N[C@@H](Cc1ccccc1)C(=O)N[C@@H](Cc1c[nH]c2ccccc12)C(=O)N1CCC[C@H]1C(=O)N[C@@H](Cc1ccccc1)C(=O)N[C@@H](Cc1ccc(O)cc1)C(=O)N[C@@H](Cc1c[nH]cn1)C(=O)N[C@H](C(=O)N[C@@H](C)C(N)=O)CSCCC3=O [BCY18218, Ac-A-(SEQ ID NO: 1)-A] (Ac-ACSEYCFWPFYHCA-NH2; linker 2-6-13 via TATA) , thanks.
Result: 2000

Problem: Need Kd of C[C@H](N)C(=O)N[C@H]1CSCCC(=O)N2CN3CN(C2)C(=O)CCSC[C@H](NC(=O)[C@H](Cc2ccc(O)cc2)NC(=O)[C@H](CC(N)=O)NC(=O)[C@H]([C@@H](C)O)NC1=O)C(=O)N[C@@H](Cc1ccccc1)C(=O)N[C@@H](Cc1c[nH]c2ccccc12)C(=O)N1CCC[C@H]1C(=O)N[C@@H](Cc1ccccc1)C(=O)N[C@@H](CCC(N)=O)C(=O)N[C@@H](Cc1ccc(O)cc1)C(=O)N[C@H](C(=O)N[C@@H](C)C(N)=O)CSCCC3=O [BCY19779, A-(SEQ ID NO: 18)-A] (H-ACTNYCFWPFQYCA-NH2; linker 2-6-13 via TATA) , thanks.
Result: 920

---

measured on: TREM2 extracellular domain (ECD) (residues 19-131, C-terminally biotinylated, deglycosylated or glycosylated) (Homo sapiens, UniProt Q9NZC2)
test protocol: biochemical
measurement parameters: Human BLI (Kd; nM) (deglycosylated), Table 4A; deglycosylated human TREM2 ECD; steady-state KD, 25° C.
*1 amine or outer side, *2 acyl side, *3 side chain or, on linkers, in order; H or OH if unused. Where a SMILES comes first, the peptide text is derived from it. Bridges are numbered along the chain shown (N, C = ends). [ ]: non-standard residue; d: D form. TATA = O=C(CC[*:1])N1CN(C(=O)CC[*:2])CN(C(=O)CC[*:3])C1; 2Nal = N[C@@H](Cc1ccc2ccccc2c1)C(=O)O
attribute measured: Kd (nM)
Please respond with the number in nM and leave the unit unwritten.

# example entries with known answers
{"columns": ["molecule", "result unit", "Kd"],
 "data": [
  ["CC(C)C[C@@H]1NC(=O)[C@H](Cc2ccc(O)cc2)NC(=O)[C@H](Cc2ccccc2)NC(=O)[C@@H]2CCCN2C(=O)[C@H](Cc2c[nH]c3ccccc23)NC(=O)[C@H](Cc2ccccc2)NC(=O)[C@@H]2CSCCC(=O)N3CN(CN(C3)C(=O)CCSC[C@@H](C(=O)N[C@@H](C)C(N)=O)NC1=O)C(=O)CCSC[C@H](NC(=O)[C@H](C)N)C(=O)N[C@@H]([C@@H](C)O)C(=O)N[C@@H](CC(N)=O)C(=O)N[C@@H](Cc1ccc(O)cc1)C(=O)N2 [BCY19782, A-(SEQ ID NO: 21)-A] (H-ACTNYCFWPFYLCA-NH2; linker 2-6-13 via TATA)", "nM", 1400],
  ["CC(C)[C@@H]1NC(=O)[C@H](C)NC(=O)[C@H](Cc2ccccc2)NC(=O)[C@@H]2CCCN2C(=O)[C@H](Cc2c[nH]c3ccccc23)NC(=O)[C@H](Cc2ccccc2)NC(=O)[C@@H]2CSCCC(=O)N3CN(CN(C3)C(=O)CCSC[C@@H](C(=O)N[C@@H](C)C(N)=O)NC1=O)C(=O)CCSC[C@H](NC(=O)[C@H](C)N)C(=O)N[C@@H]([C@@H](C)O)C(=O)N[C@@H](CC(N)=O)C(=O)N[C@@H](Cc1ccc(O)cc1)C(=O)N2 [BCY19783, A-(SEQ ID NO: 22)-A] (H-ACTNYCFWPFAVCA-NH2; linker 2-6-13 via TATA)", "nM", 2700],
  ["CC(=O)N[C@H]1CSCCC(=O)N2CN3CN(C2)C(=O)CCSC[C@H](NC(=O)[C@H](Cc2ccc(O)cc2)NC(=O)[C@H](CCC(=O)O)NC(=O)[C@H](CO)NC1=O)C(=O)N[C@@H](Cc1ccccc1)C(=O)N[C@@H](Cc1ccc2ccccc2c1)C(=O)N1CCC[C@H]1C(=O)N[C@@H](Cc1ccccc1)C(=O)N[C@@H](Cc1ccc(O)cc1)C(=O)N[C@@H](C)C(=O)N[C@H](C(N)=O)CSCCC3=O [BCY19296, Ac-(SEQ ID NO: 33)] (Ac-CSEYCF[2Nal]PFYAC-NH2; linker 1-5-12 via TATA; C-terminus assumed)", "nM", 2700]
]}

Problem: Need Kd of CC(C)C[C@@H]1NC(=O)[C@H](Cc2ccccc2)NC(=O)[C@H](Cc2ccccc2)NC(=O)[C@@H]2CCCN2C(=O)[C@H](Cc2c[nH]c3ccccc23)NC(=O)[C@H](Cc2ccccc2)NC(=O)[C@@H]2CSCCC(=O)N3CN(CN(C3)C(=O)CCSC[C@@H](C(=O)N[C@@H](C)C(N)=O)NC1=O)C(=O)CCSC[C@H](NC(=O)[C@H](C)N)C(=O)N[C@@H](CO)C(=O)N[C@@H](CCC(=O)O)C(=O)N[C@@H](Cc1ccc(O)cc1)C(=O)N2 [BCY19776, A-(SEQ ID NO: 15)-A] (H-ACSEYCFWPFFLCA-NH2; linker 2-6-13 via TATA) , thanks.
Result: 750

Where do these numbers come from? They come from patent US11904020B2.
